testedTarget: Solute carrier organic anion transporter family member 1B3 (OATP1B3) (Homo sapiens, UniProt Q9NPD5)
Sequence (Q9NPD5 whole entry): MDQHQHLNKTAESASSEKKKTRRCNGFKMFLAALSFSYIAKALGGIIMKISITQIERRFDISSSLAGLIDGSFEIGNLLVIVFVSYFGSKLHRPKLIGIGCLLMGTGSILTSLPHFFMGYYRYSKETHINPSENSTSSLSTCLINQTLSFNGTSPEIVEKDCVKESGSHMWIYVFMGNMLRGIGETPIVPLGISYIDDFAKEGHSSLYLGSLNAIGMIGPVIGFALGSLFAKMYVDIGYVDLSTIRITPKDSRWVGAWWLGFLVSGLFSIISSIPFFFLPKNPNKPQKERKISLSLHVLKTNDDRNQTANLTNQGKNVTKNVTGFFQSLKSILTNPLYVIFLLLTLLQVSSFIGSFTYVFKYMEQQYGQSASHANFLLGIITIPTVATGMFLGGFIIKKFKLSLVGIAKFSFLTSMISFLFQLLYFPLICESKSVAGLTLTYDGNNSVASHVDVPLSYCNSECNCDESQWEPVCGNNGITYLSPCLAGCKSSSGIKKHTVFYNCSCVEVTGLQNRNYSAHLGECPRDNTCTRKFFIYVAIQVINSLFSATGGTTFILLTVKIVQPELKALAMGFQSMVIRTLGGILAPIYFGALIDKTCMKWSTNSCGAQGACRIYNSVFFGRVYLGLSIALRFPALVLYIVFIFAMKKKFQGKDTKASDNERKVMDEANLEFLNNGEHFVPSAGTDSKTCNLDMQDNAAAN
experimentNotes: TP_TRANSPORTER: uptake in Xenopus laevis oocytes
Assay type: functional, cell-based, Oocyte
Numbered stars: 1 amine (or outer) side, 2 acyl side, 3 side chain; on linkers, the order of the positions; unused ones are H or OH. Bridge positions count the residues as written; N and C are the ends. Square brackets hold non-standard residues; d marks the D form. Peptide text beside a SMILES is read from it. Adda = CO[C@@H](Cc1ccccc1)[C@@H](C)/C=C(C)/C=C/[C@H](N[*:1])[C@H](C)C(=O)[*:2]; dAsp(3S-Me) = C[C@H](C(=O)[*:3])[C@@H](N[*:1])C(=O)[*:2]; d(γGlu) = O=C(O)[C@@H](CCC(=O)[*:2])N[*:1]; NMeDha = C=C(NC)C(=O)O
reportedMetric: Km (µM)
Value expressed in µM; do not type the unit.

Q) Quick check: Km of C=C1C(=O)N[C@H](C)C(=O)N[C@@H](CC(C)C)C(=O)N[C@@H](C(=O)O)[C@H](C)C(=O)N[C@@H](CCCNC(=N)N)C(=O)N[C@@H](/C=C/C(C)=C/[C@H](C)[C@H](Cc2ccccc2)OC)[C@H](C)C(=O)N[C@@H](C(=O)O)CCC(=O)N1C [MICROCYSTIN-LR] (R[Adda][d(γGlu)][NMeDha][dA]L[dAsp(3S-Me)]-OH; lactam N-7) ?
A) 12.4
